This collection of values is drawn from patent US20120225097A1.

- subjectOfTest: rat FAAH (Rattus norvegicus)
- Sequence (P97612 whole entry): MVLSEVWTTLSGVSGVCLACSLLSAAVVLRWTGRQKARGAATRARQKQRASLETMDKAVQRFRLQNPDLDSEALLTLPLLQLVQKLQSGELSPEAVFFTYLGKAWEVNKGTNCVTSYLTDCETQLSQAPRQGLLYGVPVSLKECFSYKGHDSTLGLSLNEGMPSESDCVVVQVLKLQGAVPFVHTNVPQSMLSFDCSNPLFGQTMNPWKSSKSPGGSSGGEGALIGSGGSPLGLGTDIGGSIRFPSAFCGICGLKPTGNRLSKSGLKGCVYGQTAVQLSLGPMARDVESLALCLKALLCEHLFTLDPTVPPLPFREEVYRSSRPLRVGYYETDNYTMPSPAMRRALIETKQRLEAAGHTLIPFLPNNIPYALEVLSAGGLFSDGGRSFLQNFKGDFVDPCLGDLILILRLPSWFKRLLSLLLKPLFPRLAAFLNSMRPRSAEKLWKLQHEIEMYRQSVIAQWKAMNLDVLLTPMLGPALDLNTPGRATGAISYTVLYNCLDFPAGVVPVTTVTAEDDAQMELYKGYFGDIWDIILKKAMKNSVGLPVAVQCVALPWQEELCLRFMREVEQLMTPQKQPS
- protocolNotes: Assay Method 2: FAAH assay, anandamide hydrolysis in cell homogenate
- reportedConditions: average value (standard error of the mean in parenthesis); 3H-AEA 80 nM, 1 h rt
Structures can show the parent of a compound that is named as a salt.
recordedEndpoint: pIC50
In textbook form, pIC50 equals minus log to base ten of the concentration in mol/L.

Study these solved cases before continuing.
O=C(Nc1cccnc1)N1CCN(Cc2cccc(Oc3ccc(C(F)(F)F)cc3)c2)CC1 [Example 1, bis-hydrochloride dihydrate]: 7.74
O=C(Nc1cccnc1)N1CCN(Cc2cccc(Oc3ccc(Br)cc3)c2)CC1: 7.66

Now for a further molecule.
Prompt: Requested read-out: pIC50. Entry: O=C(Nc1cccnc1)N1CCN(Cc2cccc(Oc3ccc(Cl)cc3)c2)CC1
Response: 7.19

---

molecules and their reported pIC50
- subjectOfTest: human FAAH (Homo sapiens)
- Sequence (O00519 1-579): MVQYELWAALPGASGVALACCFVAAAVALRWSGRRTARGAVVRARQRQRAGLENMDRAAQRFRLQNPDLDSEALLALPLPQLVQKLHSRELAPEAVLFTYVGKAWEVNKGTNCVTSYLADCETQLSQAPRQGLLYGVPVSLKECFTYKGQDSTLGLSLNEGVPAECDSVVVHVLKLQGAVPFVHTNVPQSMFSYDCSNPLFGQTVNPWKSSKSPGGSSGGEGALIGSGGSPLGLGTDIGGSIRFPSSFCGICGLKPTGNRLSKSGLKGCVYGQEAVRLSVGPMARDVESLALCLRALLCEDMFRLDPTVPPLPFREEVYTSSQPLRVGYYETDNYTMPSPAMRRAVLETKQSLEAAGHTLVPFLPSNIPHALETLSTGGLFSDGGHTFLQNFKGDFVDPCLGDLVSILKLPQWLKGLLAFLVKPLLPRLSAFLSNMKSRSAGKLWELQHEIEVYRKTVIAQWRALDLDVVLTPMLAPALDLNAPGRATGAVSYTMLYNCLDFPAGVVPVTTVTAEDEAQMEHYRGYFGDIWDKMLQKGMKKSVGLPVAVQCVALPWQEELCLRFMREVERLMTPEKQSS
- protocolNotes: Assay Method 1: FAAH assay, anandamide hydrolysis in cell homogenate
- reportedConditions: average value (standard error of the mean in parenthesis); 3H-AEA 80 nM, 1 h rt
Structures can show the parent of a compound that is named as a salt.
In textbook form, pIC50 equals minus log to base ten of the concentration in mol/L.

Study these solved cases before continuing.
O=C(Nc1cccnc1)N1CCN(Cc2cccc(Oc3ccc(Br)cc3)c2)CC1: 9.00
O=C(Nc1cccnc1)N1CCN(Cc2cccc(Oc3ccc(C(F)(F)F)cc3)c2)CC1 [Example 1, bis-hydrochloride dihydrate]: 9.00

Now for a further molecule.
Prompt: Missing value: pIC50, human FAAH (Homo sapiens), entry O=C(Nc1cccnc1)N1CCN(Cc2cccc(Oc3ccc(Cl)cc3)c2)CC1 . Fill in?
Response: 8.62
